- TESTED_SYSTEM: T1, recombinant human CD3 epsilon/gamma heterodimer (human, UniProt P07766 23-126; P09693 23-116)
- T1 construct: Recombinant protein in solution (200-50 nM) in the Octet assay; also called hCD3 E/G
- T1 sequence (P07766 23-126, chain 1 of 2): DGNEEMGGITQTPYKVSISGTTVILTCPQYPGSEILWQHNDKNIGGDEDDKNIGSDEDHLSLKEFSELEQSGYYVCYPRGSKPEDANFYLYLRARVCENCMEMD
- T1 sequence (P09693 23-116, chain 2 of 2): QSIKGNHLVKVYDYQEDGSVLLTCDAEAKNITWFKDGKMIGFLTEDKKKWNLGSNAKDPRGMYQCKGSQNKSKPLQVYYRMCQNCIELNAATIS
- ASSAY_TEXT: Octet BLI, mAb on FAB2G sensor, hCD3 E/G 200-50 nM; R^2 0.99
EXPERIMENTAL_ENDPOINT: kon

Ask: Quick one: kon for ABL-CD3-12 (antibody, V domains shown, Chimeric hybridoma mAb: human V, CH1, upper hinge; mouse middle hinge, CH2, CH3) VH: EVQLVESGGGLVKPGGSLRLSCAASGFTFSSYTMNWVRQAPGKGLEWVSSISRSSSYKYYADSVKGRFTISRDNAKNSLYLQMNSLRAEDTAVYYCAREPPTLGMDYWGQGTLVIVSS VL: NFMLTQPHSVSESPGKTVTISCTRSNGSITSNYVQWYQQRPGSSPTTVIYEDNQRPSGVPDRFSGSIDSSSNSASLTISGLKTEDEADYYCQSFDNSNRVFGEKTKLTVL ?
Result: 118000 M⁻¹ s⁻¹

Ask: Quick one: kon for ABL-CD3-59 (antibody, V domains shown, Chimeric hybridoma mAb: human V, CH1, upper hinge; mouse middle hinge, CH2, CH3) VH: EVQLVESGGGLVKPGGSLRLSCTASGFTLSSYSMNWVRQAPGKGLEWVSSLSRSSNYIYYAVSVKGRFTISRDNAKNSLYLQMNSLRAEDTAVYYCARERWELLYFDYWGQGTLVTVSS VL: NFMLTQPHSVSESPGKTVTISCTRSSGSIASNYVQWYQQRPGSSPTTVIYEDNQRPSGVPDRFSGSIDSSSNSASLTISGLQTEDEADYYCQSYDNSIRVFGGGTKLTVL ?
Result: 113000 M⁻¹ s⁻¹

Ask: Quick one: kon for ABL-CD3-24 (antibody, V domains shown, Chimeric hybridoma mAb: human V, CH1, upper hinge; mouse middle hinge, CH2, CH3) VH: EVQLVESGGGLVKPGGSLRLSCVASGFTFSSYTMNWVRQAPGKGLEWVSSISRSGSYKYNADSVKGRFTISRDNAKNSLYLQMNSLRVEDTAVYYCAREPPTLGMDYWGQGTLVTVSS VL: NFMLTQPHSVSESPGKTVTISCTRSSGSIASNYVQWYQQRPGSSPTTVIYEDNQRPSGVPDRFSGSIDSSSNSASLTISGLKTEDEADYYCQSFYSSNRVFGGGTELTVL ?
Result: 158000 M⁻¹ s⁻¹

Data provenance: patent US20260167721A1
